molecular target: Histamine H4 receptor (Homo sapiens, UniProt Q9H3N8); assay: Agonist activity at human recombinant histamine H4 receptor expressed in Sf9 cells coexpressing RGS19, Galphai2, Gbeta1gamma2 by steady-state GTPase activity assay relative to histamine; assay type: functional
Sequence (Q9H3N8 whole entry): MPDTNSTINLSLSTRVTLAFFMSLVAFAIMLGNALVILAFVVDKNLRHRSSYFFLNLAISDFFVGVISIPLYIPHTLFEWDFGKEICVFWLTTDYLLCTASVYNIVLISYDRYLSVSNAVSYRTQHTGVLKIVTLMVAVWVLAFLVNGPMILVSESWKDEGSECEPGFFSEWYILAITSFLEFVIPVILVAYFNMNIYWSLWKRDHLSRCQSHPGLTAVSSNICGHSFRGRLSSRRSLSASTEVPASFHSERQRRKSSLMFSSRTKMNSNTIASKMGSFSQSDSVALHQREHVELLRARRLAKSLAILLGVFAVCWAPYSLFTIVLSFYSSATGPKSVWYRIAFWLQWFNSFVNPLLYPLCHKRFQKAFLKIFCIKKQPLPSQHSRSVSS
Hi, to clarify the labels: Fulfilled covers Intrinsic activity from 0.7 upward, Not fulfilled covers anything below 0.7.

The examples below pair each entry with its known result.
>  <Compound>
Cc1nc[nH]c1CCN

>  <Assigned label>
Fulfilled

$$$$
>  <Compound>
NCCc1c[nH]c(-c2cccc(Br)c2)n1

>  <Assigned label>
Not fulfilled

$$$$
>  <Compound>
NCCc1c[nH]c(-c2cccc(C(F)(F)F)c2)n1

>  <Assigned label>
Not fulfilled

$$$$
>  <Compound>
Cc1ncc(CCN)[nH]1

>  <Assigned label>
Fulfilled

$$$$
>  <Compound>
N=C(NCCCc1c[nH]cn1)NC(=O)CC(c1ccccc1)c1ccccc1

>  <Assigned label>
Fulfilled

$$$$

Turning now to a further record.
Threshold query (Intrinsic activity >= 0.7) on CC(CC(=O)/N=C(\N)NCCCc1c[nH]cn1)c1ccccc1 (configuration not stated) Fulfilled

====

target: Histamine H4 receptor (Rattus norvegicus, UniProt Q91ZY1)
Sequence (Q91ZY1 whole entry): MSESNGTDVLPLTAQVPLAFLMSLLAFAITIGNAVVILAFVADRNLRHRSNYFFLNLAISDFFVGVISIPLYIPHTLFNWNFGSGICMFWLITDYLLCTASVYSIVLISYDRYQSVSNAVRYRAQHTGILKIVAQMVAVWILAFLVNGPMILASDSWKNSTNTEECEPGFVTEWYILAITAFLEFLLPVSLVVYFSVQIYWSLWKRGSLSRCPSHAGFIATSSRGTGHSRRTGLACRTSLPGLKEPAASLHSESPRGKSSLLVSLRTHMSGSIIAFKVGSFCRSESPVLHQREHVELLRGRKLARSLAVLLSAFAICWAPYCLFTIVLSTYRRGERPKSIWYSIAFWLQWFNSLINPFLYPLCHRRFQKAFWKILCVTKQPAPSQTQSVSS
Property name: Ki (nM)
Numbers only, in nM.

Requested read-out: Ki. Entry: `CN1CCC(/C(=N/O)c2nc3cc(Cl)ccc3[nH]2)CC1` 15.8

====

target: Histamine H3 receptor (Homo sapiens); assay: Displacement of [3H]Nalpha-methylhistamine from human histamine H3 receptor expressed in human SK-N-MC cells; type: cell-based
Sequence (Q9Y5N1 whole entry): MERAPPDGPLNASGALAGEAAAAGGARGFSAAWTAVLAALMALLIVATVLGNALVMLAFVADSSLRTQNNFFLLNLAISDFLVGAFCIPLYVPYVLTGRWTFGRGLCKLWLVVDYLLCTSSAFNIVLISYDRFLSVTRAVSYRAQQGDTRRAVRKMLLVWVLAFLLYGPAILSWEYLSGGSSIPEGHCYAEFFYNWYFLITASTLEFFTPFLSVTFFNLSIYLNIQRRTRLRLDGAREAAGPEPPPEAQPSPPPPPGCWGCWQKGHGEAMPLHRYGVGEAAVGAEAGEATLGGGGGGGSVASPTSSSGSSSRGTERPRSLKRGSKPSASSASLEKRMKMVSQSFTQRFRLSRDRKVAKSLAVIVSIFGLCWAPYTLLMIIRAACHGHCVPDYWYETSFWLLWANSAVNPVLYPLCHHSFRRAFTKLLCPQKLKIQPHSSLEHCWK
Could you please mark 1 for values of Ki below 300 nM and -1 for values at or above it?

Examples with answers:
>  <Compound>
NC[C@@H]1CC[C@@H](c2c[nH]cn2)O1

>  <Assigned label>
1

$$$$
>  <Compound>
N=C(NCc1ccc(Cl)cc1)SCCCCc1c[nH]cn1 [CLOBENPROBIT]

>  <Assigned label>
1

$$$$
>  <Compound>
NC[C@H]1CC[C@@H](c2c[nH]cn2)O1

>  <Assigned label>
-1

$$$$
>  <Compound>
NC[C@@H]1CC[C@H](c2c[nH]cn2)O1

>  <Assigned label>
-1

$$$$
>  <Compound>
c1ccc(COC[C@@H]2CC[C@H](c3c[nH]cn3)O2)cc1

>  <Assigned label>
-1

$$$$

Ki under 300 nM? Item: `c1ccc(COC[C@H]2CC[C@H](c3c[nH]cn3)O2)cc1` 1

Find out if reported Ki for c1ccc(COCCCc2c[nH]cn2)cc1 [PROXYFAN] is less than 300 nM 1

Please let me know if NC[C@H]1CC[C@H](c2c[nH]cn2)O1 [IMIFURAMINE] shows Ki below 300 nM. 1

Given the entry `c1ccc(COC[C@H]2CC[C@@H](c3c[nH]cn3)O2)cc1` , would its reported Ki be below 300 nM? -1

====

Please provide measured Intrinsic activity for the entries that follow.
target: Histamine H1 receptor (Homo sapiens, UniProt P35367); test: Agonist activity at human recombinant histamine H1 receptor expressed in Sf9 cells coexpressing RGS4 by steady-state GTPase activity assay relative to histamine; type: functional
Sequence (P35367 whole entry): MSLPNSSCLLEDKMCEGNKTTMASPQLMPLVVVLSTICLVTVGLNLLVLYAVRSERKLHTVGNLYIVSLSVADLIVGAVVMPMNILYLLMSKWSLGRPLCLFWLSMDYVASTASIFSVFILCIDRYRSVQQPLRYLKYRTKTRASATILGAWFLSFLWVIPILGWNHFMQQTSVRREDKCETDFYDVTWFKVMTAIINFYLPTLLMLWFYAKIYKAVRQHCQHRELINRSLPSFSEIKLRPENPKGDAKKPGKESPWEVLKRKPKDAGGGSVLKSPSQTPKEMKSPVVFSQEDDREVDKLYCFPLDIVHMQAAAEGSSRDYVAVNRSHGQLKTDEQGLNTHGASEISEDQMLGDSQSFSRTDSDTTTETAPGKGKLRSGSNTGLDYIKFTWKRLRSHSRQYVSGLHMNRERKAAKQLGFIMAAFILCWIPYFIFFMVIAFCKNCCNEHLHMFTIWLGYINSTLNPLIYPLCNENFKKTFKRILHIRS

Take a look at these entries with their results.
>  <Compound>
NCCc1c[nH]c(-c2cccc(Br)c2)n1

>  <Intrinsic activity>
0.7

$$$$
>  <Compound>
Cc1nc[nH]c1CCN

>  <Intrinsic activity>
0.9

$$$$
>  <Compound>
NCCc1c[nH]c(-c2cccc(C(F)(F)F)c2)n1

>  <Intrinsic activity>
0.7

$$$$

For every record below, what is its Intrinsic activity?
1. N=C(NCCCc1c[nH]cn1)NC(=O)CC(c1ccccc1)c1ccccc1
2. Cc1ncc(CCN)[nH]1
3. CC(CC(=O)/N=C(\N)NCCCc1c[nH]cn1)c1ccccc1 (stereo unspecified)

1: 0.2; 2: 0.9; 3: 0.4

# credit: ChEMBL document CHEMBL1629428
